ε values by entry
- test: Photophysical measurements of photosensitizers (λmax, ε, φ f)
- Format: physicochemical
- reported-conditions: at λmax
measurement-label: ε

>>> observed_measurement("CCC1=C(CC)C2=NC1=Cc1c(CC)c(CC)c3[n]1[In]([Cl])[n]1c(c(CC)c(CC)c1=c1cc(S(=O)(=O)NCCCO)cc4c1=NC(=C3)C4(CC)CC)=C2 [Compound 10, InOEBCSO2NH(CH2)3OH]")
"52,000 M^−1 cm^−1"
>>> observed_measurement("CCC1=C(CC)c2cc3[nH]c(c(CC)c3CC)c3cc(S(=O)(=O)NCCCO)cc4c3nc(cc3[nH]c(cc1n2)c(CC)c3CC)C4(CC)CC [Compound 2, OEBCSO2NH(CH2)3OH]")
"34,000 M^−1 cm^−1"
>>> observed_measurement("CCC1=C(CC)C2=NC1=Cc1c(CC)c(CC)c3[n]1[In]([Cl])[n]1c(c(CC)c(CC)c1=c1cc(S(=O)(=O)NCCOCCOCCOC)cc4c1=NC(=C3)C4(CC)CC)=C2 [Compound 16]")
"52,000 M^−1 cm^−1"
>>> observed_measurement("CCC1=C(CC)C2=NC1=Cc1c(CC)c(CC)c3[n]1[In]([Cl])[n]1c(c(CC)c(CC)c1=c1cc(S(=O)(=O)N(CCO)CCO)cc4c1=NC(=C3)C4(CC)CC)=C2 [Compound 12]")
"52,000 M^−1 cm^−1"
>>> observed_measurement("CCC1=C(CC)C2=NC1=Cc1c(CC)c(CC)c3[n]1[In]([Cl])[n]1c(c(CC)c(CC)c1=c1cc(C)cc4c1=NC(=C3)C4(CC)CC)=C2 [Compound 11]")
"54,000 M^−1 cm^−1"
>>> observed_measurement("CCC1=C(CC)C2=NC1=Cc1c(CC)c(CC)c3[n]1[In]([Cl])[n]1c(c(CC)c(CC)c1=c1cc(S(=O)(=O)NCC(=O)O)cc4c1=NC(=C3)C4(CC)CC)=C2 [Compound 20]")
"52,000 M^−1 cm^−1"
>>> observed_measurement("CCC1=C(CC)c2cc3[nH]c(c(CC)c3CC)c3cccc4c3nc(cc3[nH]c(cc1n2)c(CC)c3CC)C4(CC)CC [Compound 1, Octaethylbenzochlorin]")
"35,000 M^−1 cm^−1"
>>> observed_measurement("CCC1=C(CC)c2cc3[nH]c(c(CC)c3CC)c3cc(C)cc4c3nc(cc3[nH]c(cc1n2)c(CC)c3CC)C4(CC)CC [Compound 3]")
"35,000 M^−1 cm^−1"
>>> observed_measurement("CCC1=C(CC)C2=NC1=Cc1c(CC)c(CC)c3[n]1[In]([Cl])[n]1c(c(CC)c(CC)c1=c1cc(S(=O)(=O)NCCCCC(N)C(=O)O)cc4c1=NC(=C3)C4(CC)CC)=C2 (stereo not shown) [Compound 21, InOEBCSO2NH (CH2)4CH(NH2)CO2H]")
"52,000 M^−1 cm^−1"
>>> observed_measurement("CCC1=C(CC)C2=NC1=Cc1c(CC)c(CC)c3[n]1[In]([Cl])[n]1c(c(CC)c(CC)c1=c1cc(S(=O)(=O)NCCN(C)C)cc4c1=NC(=C3)C4(CC)CC)=C2 [Compound 15]")
"52,000 M^−1 cm^−1"

----------
φ f values by entry
- test: Photophysical measurements of photosensitizers (λmax, ε, φ f)
- Format: physicochemical
measurement-label: φ f

>>> observed_measurement("CCC1=C(CC)C2=NC1=Cc1c(CC)c(CC)c3[n]1[In]([Cl])[n]1c(c(CC)c(CC)c1=c1cc(S(=O)(=O)NC(CO)(CO)CO)cc4c1=NC(=C3)C4(CC)CC)=C2")
0.03
>>> observed_measurement("CCC1=C(CC)C2=NC1=Cc1c(CC)c(CC)c3[n]1[In]([Cl])[n]1c(c(CC)c(CC)c1=c1cc(S(=O)(=O)NCCCS)cc4c1=NC(=C3)C4(CC)CC)=C2")
0.03

----------
- test: Photophysical measurements of photosensitizers (λmax, ε, φ f)
- Type: physicochemical
φ f values by entry
measurement-label: φ f

>>> observed_measurement("CCC1=C(CC)C2=NC1=Cc1c(CC)c(CC)c3[n]1[In]([Cl])[n]1c(c(CC)c(CC)c1=c1cc(S(=O)(=O)NCCCCC(N)C(=O)O)cc4c1=NC(=C3)C4(CC)CC)=C2 (stereo not drawn)")
0.03
>>> observed_measurement("CCC1=C(CC)C2=NC1=Cc1c(CC)c(CC)c3[n]1[In]([Cl])[n]1c(c(CC)c(CC)c1=c1cc(C)cc4c1=NC(=C3)C4(CC)CC)=C2")
0.034
>>> observed_measurement("CCC1=C(CC)c2cc3[nH]c(c(CC)c3CC)c3cc(S(=O)(=O)NCCCO)cc4c3nc(cc3[nH]c(cc1n2)c(CC)c3CC)C4(CC)CC")
0.230

----------
- test: Photophysical measurements of photosensitizers (λmax, ε, φ f)
- Assay type: physicochemical
- reported-conditions: at λmax
ε values by entry
measurement-label: ε

>>> observed_measurement("CCC1=C(CC)C2=NC1=Cc1c(CC)c(CC)c3[n]1[In]([Cl])[n]1c(c(CC)c(CC)c1=c1cc(S(=O)(=O)NCCCCCO)cc4c1=NC(=C3)C4(CC)CC)=C2")
"52,000 M^−1 cm^−1"
>>> observed_measurement("CCC1=C(CC)C2=NC1=Cc1c(CC)c(CC)c3[n]1[In]([Cl])[n]1c(c(CC)c(CC)c1=c1cc(S(=O)(=O)NCCCS)cc4c1=NC(=C3)C4(CC)CC)=C2")
"52,000 M^−1 cm^−1"
>>> observed_measurement("CCC1=C(CC)C2=NC1=Cc1c(CC)c(CC)c3[n]1[Zn][n]1c(c(CC)c(CC)c1=c1cccc4c1=NC(=C3)C4(CC)CC)=C2")
"57,000 M^−1 cm^−1"
>>> observed_measurement("CCC1=C(CC)C2=NC1=Cc1c(CC)c(CC)c3[n]1[In]([Cl])[n]1c(c(CC)c(CC)c1=c1cc(S(=O)(=O)NC(CO)(CO)CO)cc4c1=NC(=C3)C4(CC)CC)=C2")
"52,000 M^−1 cm^−1"
>>> observed_measurement("CCC1=C(CC)C2=NC1=Cc1c(CC)c(CC)c3[n]1[In]([Cl])[n]1c(c(CC)c(CC)c1=c1cccc4c1=NC(=C3)C4(CC)CC)=C2")
"53,000 M^−1 cm^−1"

----------
- test: Photophysical measurements of photosensitizers (λmax, ε, φ f)
- Type: physicochemical
- Parameters: unit not given here
- reported-conditions: band I absorption maximum
λmax values by entry
measurement-label: λmax

>>> observed_measurement("CCC1=C(CC)C2=NC1=Cc1c(CC)c(CC)c3[n]1[In]([Cl])[n]1c(c(CC)c(CC)c1=c1cc(S(=O)(=O)NC(CO)(CO)CO)cc4c1=NC(=C3)C4(CC)CC)=C2")
684
>>> observed_measurement("CCC1=C(CC)C2=NC1=Cc1c(CC)c(CC)c3[n]1[In]([Cl])[n]1c(c(CC)c(CC)c1=c1cc(C)cc4c1=NC(=C3)C4(CC)CC)=C2")
687
>>> observed_measurement("CCC1=C(CC)C2=NC1=Cc1c(CC)c(CC)c3[n]1[In]([Cl])[n]1c(c(CC)c(CC)c1=c1cc(S(=O)(=O)NCCCO)cc4c1=NC(=C3)C4(CC)CC)=C2")
684
>>> observed_measurement("CCC1=C(CC)c2cc3[nH]c(c(CC)c3CC)c3cc(C)cc4c3nc(cc3[nH]c(cc1n2)c(CC)c3CC)C4(CC)CC")
658
>>> observed_measurement("CCC1=C(C)C2=NC1=Cc1c(C)c3c4[n]1[In]([Cl])[n]1c(c(C)c(C(C)=O)c1=C2)=CC1=NC(=C4CC3=O)[C@@H](CCC(=O)OC)[C@@H]1C")
672
>>> observed_measurement("CCC1=C(CC)C2=NC1=Cc1c(CC)c(CC)c3[n]1[In]([Cl])[n]1c(c(CC)c(CC)c1=c1cc(S(=O)(=O)NCCN(C)C)cc4c1=NC(=C3)C4(CC)CC)=C2")
684

----------
- test: Photophysical measurements of photosensitizers (λmax, ε, φ f)
- Format: physicochemical
measurement-label: φ f

>>> observed_measurement("CCC1=C(CC)C2=NC1=Cc1c(CC)c(CC)c3[n]1[In]([Cl])[n]1c(c(CC)c(CC)c1=c1cc(S(=O)(=O)NCCN(C)C)cc4c1=NC(=C3)C4(CC)CC)=C2")
"˜0.03"
>>> observed_measurement("CCC1=C(CC)C2=NC1=Cc1c(CC)c(CC)c3[n]1[In]([Cl])[n]1c(c(CC)c(CC)c1=c1cc(S(=O)(=O)NCCCCCO)cc4c1=NC(=C3)C4(CC)CC)=C2")
"˜0.03"
>>> observed_measurement("CCC1=C(CC)C2=NC1=Cc1c(CC)c(CC)c3[n]1[In]([Cl])[n]1c(c(CC)c(CC)c1=c1cc(S(=O)(=O)N(CCO)CCO)cc4c1=NC(=C3)C4(CC)CC)=C2")
"˜0.03"

src = patent US6444194B1
